In this section, each of the binders is paired with its reported pKd.
molecular target: T1, TGFβ1 (R&D Systems); test: single point SPR
T1 construct: also called TGFB1
T1 sequence (P01137 279-390): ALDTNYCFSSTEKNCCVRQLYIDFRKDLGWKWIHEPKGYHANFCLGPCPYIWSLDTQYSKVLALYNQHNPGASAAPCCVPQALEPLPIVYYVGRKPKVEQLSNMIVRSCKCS
pKd: −log10 of the molar value.

binder: Can-SL501-VH3 D108K / Can-SL501-VL2 (antibody, V domains shown) VH: EVQLVESGGDLVKPGGSLRLSCVASGFTFSSYGMHWVRQAPGKELEWVAVISYDGSIKYYADAVKGRFTISRDNAKNTLYLQMNSLRAEDTAVYYCARTGEYSGYDTKPQYSWGQGTTVTVSS VL: EIVMTQSPGSLAGSAGESVSINCRASQGIGDDLGWYQQKPGERPKLLIYGTSTLQSGVPARFSSSGSGTDFTLTINNLQAEDVGDYYCLQDSNYPLTFGAGTK
pKd: 9.55
//
binder: Can-SL501-VH3 S112D / Can-SL501-VL2 (antibody, V domains shown) VH: EVQLVESGGDLVKPGGSLRLSCVASGFTFSSYGMHWVRQAPGKELEWVAVISYDGSIKYYADAVKGRFTISRDNAKNTLYLQMNSLRAEDTAVYYCARTGEYSGYDTDPQYDWGQGTTVTVSS VL: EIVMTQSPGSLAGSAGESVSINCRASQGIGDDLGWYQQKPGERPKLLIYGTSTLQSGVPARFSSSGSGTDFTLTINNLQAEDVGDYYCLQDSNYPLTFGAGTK
pKd: 8.15
//
binder: Can-SL501-VH3 D108N / Can-SL501-VL2 (antibody, V domains shown) VH: EVQLVESGGDLVKPGGSLRLSCVASGFTFSSYGMHWVRQAPGKELEWVAVISYDGSIKYYADAVKGRFTISRDNAKNTLYLQMNSLRAEDTAVYYCARTGEYSGYDTNPQYSWGQGTTVTVSS VL: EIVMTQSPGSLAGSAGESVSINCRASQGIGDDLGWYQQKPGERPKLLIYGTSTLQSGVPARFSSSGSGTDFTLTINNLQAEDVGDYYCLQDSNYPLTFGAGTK
pKd: 8.01
//
binder: Can-SL501-VH3 D108Q / Can-SL501-VL2 (antibody, V domains shown) VH: EVQLVESGGDLVKPGGSLRLSCVASGFTFSSYGMHWVRQAPGKELEWVAVISYDGSIKYYADAVKGRFTISRDNAKNTLYLQMNSLRAEDTAVYYCARTGEYSGYDTQPQYSWGQGTTVTVSS VL: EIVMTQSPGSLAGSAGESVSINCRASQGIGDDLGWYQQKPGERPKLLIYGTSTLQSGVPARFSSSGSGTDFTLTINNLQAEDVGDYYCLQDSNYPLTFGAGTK
pKd: 8.90
//
binder: Can-SL501-VH3 Y111M / Can-SL501-VL2 (antibody, V domains shown) VH: EVQLVESGGDLVKPGGSLRLSCVASGFTFSSYGMHWVRQAPGKELEWVAVISYDGSIKYYADAVKGRFTISRDNAKNTLYLQMNSLRAEDTAVYYCARTGEYSGYDTDPQMSWGQGTTVTVSS VL: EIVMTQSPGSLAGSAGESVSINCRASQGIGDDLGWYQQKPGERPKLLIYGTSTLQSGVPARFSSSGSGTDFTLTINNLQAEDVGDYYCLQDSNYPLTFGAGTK
pKd: 8.93
